System: B16 cells
Experiment: Melanin-production test of B16 cells
Format: cell-based, mouse
Conditions: evaluated concentration 80 µM; culture for 5 days
READOUT: log10 of Melanin levels (log10 of the value in µg/10^6 cells)
Please be aware that the numbers have been log10-transformed from Melanin levels in µg/10^6 cells.

COMPOUND	TARGET UNDER TEST	log10 of Melanin levels
CCCCC=CCCCCCCCCC(=O)OCC(COC(=O)CCCCCCCCC=CCCCC)OC(=O)CCCCCCCCC=CCCCC (stereo not shown)	B16 cells	-0.70
CCCC=CCC=CCC=CCCCCC(=O)O	B16 cells	-1.00
CCCC=CCCCCC(=O)O	B16 cells	0.68
CCCC/C=C\CCCCCCCC(=O)OC	B16 cells	0.08
CCCCCC/C=C\CCCCCCCC(=O)OCC(COC(=O)CCCCCCC/C=C\CCCCCC)OC(=O)CCCCCCC/C=C\CCCCCC	B16 cells	-1.00
CCCCCCC=CCCCCCCCCC(=O)O	B16 cells	-0.30

Exam item: Return reported log10 of Melanin levels; argument: CCCCC=CCC=CCCCCCC(=O)O
Marked response: -1.00
